What follows is a record of IC50 for TRKA (Homo sapiens (Human), UniProt P04629).
quantity kind: IC50

COC(=O)N[C@@H]1CC[C@@H](n2c(=O)n(C)c3cnc4[nH]c(-c5ccc(C(=O)N6CCC(F)(F)CC6)c(F)c5)c(-c5ccc6c(cnn6C(C)C)c5)c4c32)C1 :: > 2500 nM
COC(=O)N[C@@H]1CC[C@@H](n2c(=O)n(C)c3cnc4[nH]c(-c5ccc(C(=O)NC6CC6)c(F)c5)c(-c5ccc6c(cnn6C(C)C)c5)c4c32)C1 :: > 2500 nM
CNC(=O)c1ccc(-c2[nH]c3ncc4c(c3c2-c2ccc3c(cnn3C(C)C)c2)n([C@@H]2CC[C@@H](NC(=O)OC)C2)c(=O)n4C)cc1 :: 1250 to 2500 nM
COC(=O)N[C@@H]1CC[C@@H](n2c(=O)n(C)c3cnc4[nH]c(-c5ccc(C(=O)N6CCOCC6)c(F)c5)c(-c5ccc6c(cnn6C(C)C)c5)c4c32)C1 :: 1250 to 2500 nM
Cn1cc(-c2[nH]c3ncc4c(c3c2-c2ccc3c(cnn3C)c2)n([C@H]2CC[C@@H](CC#N)CC2)c(=O)n4C)cn1 [Comparative Example C, reference compound] :: < 25 nM
COCCNC(=O)c1ccc(-c2[nH]c3ncc4c(c3c2-c2ccc3c(cnn3C(C)C)c2)n([C@@H]2CC[C@@H](NC(=O)OC)C2)c(=O)n4C)cc1F :: > 2500 nM
COC(=O)N[C@@H]1CC[C@@H](n2c(=O)n(C)c3cnc4[nH]c(-c5ccc(C(=O)NCCCNc6ccccc6)c(F)c5)c(-c5ccc6c(cnn6C(C)C)c5)c4c32)C1 :: > 2500 nM
[2H]C([2H])([2H])n1c(=O)n([C@@H]2CC[C@@H](NC(=O)OC)C2)c2c3c(-c4ccc5c(c4)COC5(C)C)c(-c4ccc(C(=O)N(C)C)cc4)[nH]c3ncc21 :: 250 to 1250 nM
COC(=O)N[C@@H]1CC[C@@H](n2c(=O)n(C)c3cnc4[nH]c(-c5ccc(C(=O)N6C7CCC6COC7)c(OC)c5)c(-c5cccc(F)c5)c4c32)C1 :: 250 to 1250 nM

====

- target desc: catalytic domain (JH1) of human JAK2 (Homo sapiens (Human))
- Sequence (O60674 826-1132): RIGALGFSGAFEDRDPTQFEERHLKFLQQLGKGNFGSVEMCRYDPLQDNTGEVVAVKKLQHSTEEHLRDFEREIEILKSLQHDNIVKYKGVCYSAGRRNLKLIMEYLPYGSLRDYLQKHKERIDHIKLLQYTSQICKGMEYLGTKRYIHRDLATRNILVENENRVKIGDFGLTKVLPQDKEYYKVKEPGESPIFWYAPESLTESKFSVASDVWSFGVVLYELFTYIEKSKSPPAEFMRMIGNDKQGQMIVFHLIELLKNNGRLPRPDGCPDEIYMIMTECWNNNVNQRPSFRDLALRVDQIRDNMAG
- assay procedure: JAK2 LanthaScreen JH1 Binding Assay
- condition notes: read-out: JH1 Bind IC50
pIC50: −log10 of the molar value.
quantity kind: pIC50

COC(=O)N[C@@H]1CC[C@@H](n2c(=O)n(C)c3cnc4[nH]c(-c5ccc(C(=O)NC6CC6C(F)(F)F)c(F)c5)c(-c5ccc6c(cnn6C(C)C)c5)c4c32)C1 (some centres unmarked) [Example 10] :: < 6.00
CCNC(=O)c1ccc(-c2[nH]c3ncc4c(c3c2-c2ccc3c(cnn3C(C)C)c2)n([C@@H]2CC[C@@H](NC(=O)OC)C2)c(=O)n4C)cc1F [Example 6] :: < 6.00
COC(=O)N[C@@H]1CC[C@@H](n2c(=O)n(C)c3cnc4[nH]c(-c5cc(F)c(C(=O)NC6CC6)c(F)c5)c(-c5cccc(F)c5)c4c32)C1 [Example 4] :: < 6.00
[2H]C([2H])([2H])n1c(=O)n([C@@H]2CC[C@@H](NC(=O)OC)C2)c2c3c(-c4ccc5c(cnn5C(C)C)c4)c(-c4ccc(CN(C)C)cc4)[nH]c3ncc21 [Example 26] :: < 6.00
COC(=O)N[C@@H]1CC[C@@H](n2c(=O)n(C)c3cnc4[nH]c(-c5ccc(C(=O)NC6CC6)c(F)c5)c(-c5ccc6c(cnn6C(C)C)c5)c4c32)C1 [Example 8] :: < 6.00

====

- target desc: FLT3 (Homo sapiens (Human), UniProt P36888)
- Sequence (P36888 27-993, species assumed): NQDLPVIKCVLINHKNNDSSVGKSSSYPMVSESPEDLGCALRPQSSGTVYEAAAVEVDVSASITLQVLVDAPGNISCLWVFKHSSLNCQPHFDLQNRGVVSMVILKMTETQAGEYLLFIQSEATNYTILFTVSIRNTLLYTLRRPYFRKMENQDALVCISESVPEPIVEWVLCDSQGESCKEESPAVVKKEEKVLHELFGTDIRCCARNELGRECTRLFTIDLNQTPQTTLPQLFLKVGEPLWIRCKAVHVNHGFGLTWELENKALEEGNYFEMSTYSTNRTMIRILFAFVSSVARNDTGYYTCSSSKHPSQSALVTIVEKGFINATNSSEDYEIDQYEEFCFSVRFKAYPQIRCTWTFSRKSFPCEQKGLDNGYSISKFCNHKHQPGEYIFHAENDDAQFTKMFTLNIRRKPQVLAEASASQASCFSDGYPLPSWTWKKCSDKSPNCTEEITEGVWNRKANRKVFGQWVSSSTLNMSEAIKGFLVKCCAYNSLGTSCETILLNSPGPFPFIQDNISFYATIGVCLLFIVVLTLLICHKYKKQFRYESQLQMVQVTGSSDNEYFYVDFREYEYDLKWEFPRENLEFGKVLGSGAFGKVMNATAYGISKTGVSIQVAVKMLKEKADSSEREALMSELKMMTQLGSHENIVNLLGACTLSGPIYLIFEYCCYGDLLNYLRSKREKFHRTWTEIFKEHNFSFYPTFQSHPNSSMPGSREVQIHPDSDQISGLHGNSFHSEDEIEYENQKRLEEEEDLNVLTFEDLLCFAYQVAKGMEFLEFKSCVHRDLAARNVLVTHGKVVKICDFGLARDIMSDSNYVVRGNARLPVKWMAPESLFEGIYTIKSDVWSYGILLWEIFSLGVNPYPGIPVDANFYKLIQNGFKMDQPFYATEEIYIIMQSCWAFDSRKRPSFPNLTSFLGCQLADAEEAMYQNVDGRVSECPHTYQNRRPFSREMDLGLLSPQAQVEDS
pIC50: −log10 of the molar value.
Entries annotated with measured pIC50
quantity kind: pIC50

COC(=O)N[C@@H]1CC[C@@H](n2c(=O)n(C)c3cnc4[nH]c(-c5ccc(C(=O)N6C7CCC6COC7)c(OC)c5)c(-c5cccc(F)c5)c4c32)C1 :: 5.60 to 5.90
CCNC(=O)c1ccc(-c2[nH]c3ncc4c(c3c2-c2ccc3c(cnn3C(C)C)c2)n([C@@H]2CC[C@@H](NC(=O)OC)C2)c(=O)n4C)cc1F :: 5.60 to 5.90
COC(=O)N[C@@H]1CC[C@@H](n2c(=O)n(C)c3cnc4[nH]c(-c5ccc(C(=O)NC6CC6)c(F)c5)c(-c5ccc6c(cnn6C(C)C)c5)c4c32)C1 :: < 5.60
COC(=O)N[C@@H]1CC[C@@H](n2c(=O)n(C)c3cnc4[nH]c(-c5ccc(C(=O)N(C)C)cc5)c(-c5ccc6c(cnn6C(C)C)c5)c4c32)C1 :: 5.90 to 6.60
[2H]C([2H])([2H])N(Cc1ccc(-c2[nH]c3ncc4c(c3c2-c2ccc3c(c2)COC3(C)C)n([C@@H]2CC[C@@H](NC(=O)OC)C2)c(=O)n4C([2H])([2H])[2H])cc1)C([2H])([2H])[2H] :: 5.90 to 6.60

====

pIC50: −log10 of the molar value.
What follows is a record of pIC50 for FLT3 (Homo sapiens (Human), UniProt P36888).
quantity kind: pIC50

COCCNC(=O)c1ccc(-c2[nH]c3ncc4c(c3c2-c2ccc3c(cnn3C(C)C)c2)n([C@@H]2CC[C@@H](NC(=O)OC)C2)c(=O)n4C)cc1 [Example 19] :: 5.90 to 6.60
CN(C)C(=O)c1ccc(-c2[nH]c3ncc4c(c3c2-c2ccc3c(cnn3C)c2)n(C2CCCC2)c(=O)n4C)cc1 [Comparative Example F, reference compound] :: 6.60 to 7.60
Cn1ncc2cc(-c3c(-c4ccc(CN5CCC(S(C)(=O)=O)CC5)cc4)[nH]c4ncc5c(c34)n(C3CCCC3)c(=O)n5C)ccc21 [Comparative Example I, reference compound] :: > 7.60
COC(=O)N[C@@H]1CC[C@@H](n2c(=O)n(C)c3cnc4[nH]c(-c5ccc(C(=O)NC6CC6(F)F)c(F)c5)c(-c5ccc6c(cnn6C(C)C)c5)c4c32)C1 (some centres unmarked) [Example 9] :: < 5.60
COC(=O)N[C@@H]1CC[C@@H](n2c(=O)n(C)c3cnc4[nH]c(-c5ccc(C(=O)NC6(C(F)(F)F)CC6)c(F)c5)c(-c5ccc6c(cnn6C(C)C)c5)c4c32)C1 [Example 13] :: < 5.60

====

- target desc: pseudo-kinase domain (JH2) of human V617F mutant JAK2 (Homo sapiens (Human), UniProt O60674, F794H/V617F/W659A/W777A)
- Sequence (O60674 536-812 V617F/W659A/W777A/F794H): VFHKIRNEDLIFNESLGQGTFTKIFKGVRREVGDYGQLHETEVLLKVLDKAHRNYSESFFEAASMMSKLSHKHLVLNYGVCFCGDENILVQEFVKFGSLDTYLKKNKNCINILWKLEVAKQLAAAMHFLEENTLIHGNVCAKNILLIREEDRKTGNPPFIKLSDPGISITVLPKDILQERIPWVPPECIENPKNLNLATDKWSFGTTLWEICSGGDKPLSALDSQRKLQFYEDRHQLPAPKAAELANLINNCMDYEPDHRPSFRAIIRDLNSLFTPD
- assay procedure: JAK2 LanthaScreen JH2-V617F Binding Assay
- condition notes: read-out: JH2 V617F Bind IC50
- Experimental: JAK2 JH2-V617F binding assay utilizes pseudo-kinase domain (JH2, amino-acids 536-812 with 3 surface mutations W659A, W777A, F794H) of human V617F mutant JAK2 expressed as C-terminal His-Avi-tagged, biotinylated protein in a baculovirus expression system (BPS Bioscience, Catalog #79498). The assay was conducted in black 384-well polystyrene plates in a final reaction volume of 20 μL. […] After incubation for 1 hour at 25° C., LanthaScreen signals were read on a PHERAstar FS plate reader (BMG LABTECH). […]
pIC50: −log10 of the molar value.
Entries annotated with measured pIC50
quantity kind: pIC50

COC(=O)N[C@@H]1CC[C@@H](n2c(=O)n(C)c3cnc4[nH]c(-c5ccc(C(=O)NC6CC6(F)F)c(F)c5)c(-c5ccc6c(cnn6C(C)C)c5)c4c32)C1 (stereo partly shown) :: ≥ 8.00
COC(=O)N[C@@H]1CC[C@@H](n2c(=O)n(C)c3cnc4[nH]c(-c5ccc(C(=O)NCC(F)(F)F)c(F)c5)c(-c5ccc6c(cnn6C(C)C)c5)c4c32)C1 :: ≥ 8.00
CCNC(=O)c1ccc(-c2[nH]c3ncc4c(c3c2-c2ccc3c(cnn3C(C)C)c2)n([C@@H]2CC[C@@H](NC(=O)OC)C2)c(=O)n4C)cc1OC :: ≥ 8.00
[2H]C([2H])([2H])N(Cc1ccc(-c2[nH]c3ncc4c(c3c2-c2ccc3c(c2)COC3(C)C)n([C@@H]2CC[C@@H](NC(=O)OC)C2)c(=O)n4C([2H])([2H])[2H])cc1)C([2H])([2H])[2H] :: ≥ 8.00
CN(C)C(=O)c1ccc(-c2[nH]c3ncc4c(c3c2-c2ccc3c(cnn3C)c2)n(C2CCCC2)c(=O)n4C)cc1 [Comparative Example F, reference compound] :: ≥ 8.00
CCNC(=O)c1ccc(-c2[nH]c3ncc4c(c3c2-c2ccc3c(cnn3C(C)C)c2)n([C@@H]2CC[C@@H](NC(=O)OC)C2)c(=O)n4C)cc1F :: ≥ 8.00
COC(=O)N[C@@H]1CC[C@@H](n2c(=O)n(C)c3cnc4[nH]c(-c5ccc(C(=O)NC6CC6)c(F)c5)c(-c5ccc6c(cnn6C(C)C)c5)c4c32)C1 :: ≥ 8.00
Cn1cc(-c2[nH]c3ncc4c(c3c2-c2ccc3c(cnn3C)c2)n([C@H]2CC[C@@H](CC#N)CC2)c(=O)n4C)cn1 [Comparative Example C, reference compound] :: ≥ 8.00
COC(=O)N[C@@H]1CC[C@@H](n2c(=O)n(C)c3cnc4[nH]c(-c5ccc(C(=O)NC6(C(F)(F)F)CC6)c(F)c5)c(-c5ccc6c(cnn6C(C)C)c5)c4c32)C1 :: ≥ 8.00
COCCNC(=O)c1ccc(-c2[nH]c3ncc4c(c3c2-c2ccc3c(cnn3C(C)C)c2)n([C@@H]2CC[C@@H](NC(=O)OC)C2)c(=O)n4C)cc1 :: ≥ 8.00
CNC(=O)c1ccc(-c2[nH]c3ncc4c(c3c2-c2cccc(F)c2)n([C@@H]2CC[C@@H](NC(=O)OC)C2)c(=O)n4C)cc1F :: ≥ 8.00
COC(=O)N[C@@H]1CC[C@@H](n2c(=O)n(C)c3cnc4[nH]c(-c5ccc(C(=O)N6CCC(F)(F)CC6)c(F)c5)c(-c5ccc6c(cnn6C(C)C)c5)c4c32)C1 :: ≥ 8.00
COC(=O)N[C@@H]1CC[C@@H](n2c(=O)n(C)c3cnc4[nH]c(-c5ccc(C(=O)N6CCOCC6)c(F)c5)c(-c5ccc6c(cnn6C(C)C)c5)c4c32)C1 :: ≥ 8.00
Cn1ncc2cc(-c3c(-c4ccc(CN5CCC(S(C)(=O)=O)CC5)cc4)[nH]c4ncc5c(c34)n(C3CCCC3)c(=O)n5C)ccc21 [Comparative Example I, reference compound] :: ≥ 8.00
[2H]C([2H])([2H])n1c(=O)n([C@@H]2CC[C@@H](NC(=O)OC)C2)c2c3c(-c4ccc5c(c4)COC5(C)C)c(-c4ccc(C(=O)N(C)C)cc4)[nH]c3ncc21 :: ≥ 8.00
COC(=O)N[C@@H]1CC[C@@H](n2c(=O)n(C)c3cnc4[nH]c(-c5ccc(C(=O)NCCCNc6ccccc6)c(F)c5)c(-c5ccc6c(cnn6C(C)C)c5)c4c32)C1 :: ≥ 8.00
COC(=O)N[C@@H]1CC[C@@H](n2c(=O)n(C)c3cnc4[nH]c(-c5ccc(CN(C)C)cc5)c(-c5ccc(F)cc5)c4c32)C1 :: ≥ 8.00
COC(=O)N[C@@H]1CC[C@@H](n2c(=O)n(C)c3cnc4[nH]c(-c5ccc(C(=O)N6CCOCC6)cc5)c(-c5ccc6c(cnn6C(C)C)c5)c4c32)C1 :: ≥ 8.00
CCNC(=O)c1ccc(-c2[nH]c3ncc4c(c3c2-c2ccc3c(cnn3C(C)C)c2)n([C@@H]2CC[C@@H](NC(=O)OC)C2)c(=O)n4C)cc1 :: ≥ 8.00
[2H]C([2H])([2H])n1c(=O)n([C@@H]2CC[C@@H](NC(=O)OC)C2)c2c3c(-c4ccc5c(cnn5C(C)C)c4)c(-c4ccc(CN(C)C)cc4)[nH]c3ncc21 :: ≥ 8.00
CNC(=O)c1ccc(-c2[nH]c3ncc4c(c3c2-c2ccc3c(cnn3C(C)C)c2)n([C@@H]2CC[C@@H](NC(=O)OC)C2)c(=O)n4C)cc1 :: ≥ 8.00
COC(=O)N[C@@H]1CC[C@@H](n2c(=O)n(C)c3cnc4[nH]c(-c5cc(F)c(C(=O)NC6CC6)c(F)c5)c(-c5cccc(F)c5)c4c32)C1 :: ≥ 8.00
